Experiment: Storage stability of FlucmRNA-loaded LNP at −80, 5, 25 and 40° C.
Assay type: physicochemical
Settings: maximum storage period 1 week
MEASURE NAME: period for which quality remained good, −80° C. (week)

| COMPOUND | VALUE MEASURED |
| --- | --- |
| CCCCCCCCCCC(CCCC)C(=O)OCCCCCCC(O)(CCCCCCOC(=O)C(CCCC)CCCCCCCCCC)CCCCN(CCC)CCC (stereo not drawn) [CL4F 12-4] | 1 |

P = CCCCCCCCCCC(CCCCCCCCCC)C(=O)OCCCCCCC(O)(CCCCCCOC(=O)C(CCCCCCCCCC)CCCCCCCCCC)CCCCOC(=O)C1CCN(C)CC1 [CL15F 12-10]
Q = CCCCCCCC(CCC)C(=O)OCCCCCCC(O)(CCCCCCOC(=O)C(CCC)CCCCCCC)CCCCOC(=O)C1CCN(C)CC1 (stereo not drawn) [CL15F 9-3]
Query: # query: argmin of period for which quality remained good, −80° C. over P and Q Output the label that corresponds to your choice.
Reply: Q

----------
Tested on: F7
Assay: In vivo F7 knockdown, plasma F7 enzyme activity (BIOPHEN FVII), Balb/c mice
Settings: i.v. 0.025 mg siRNA/kg, plasma at 24 hours, relative plasma F7 activity of MC3 LNP as 1
MEASURE NAME: F7 enzyme activity (Ratio using MC3 as 1)
Output: the number by itself.

The examples below pair each entry with its known result.
| COMPOUND | VALUE MEASURED |
| --- | --- |
| CCCCCC(CCC)C(=O)OCCCCCCC(O)(CCCCCCOC(=O)C(CCC)CCCCC)CCCCOC(=O)C1CCN(C)CC1 (stereo not drawn) [CL15F 7-3] | 2.08 |
| CCCCCCCCCC(CCCCCC)C(=O)OCCCCCCC(O)(CCCCCCOC(=O)C(CCCCCC)CCCCCCCCC)CCCCOC(=O)C1CCN(C)CC1 (stereo not drawn) [CL15F 11-6] | 0.81 |
| CCCCCCCCC(CCCC)C(=O)OCCCCCCC(O)(CCCCCCOC(=O)C(CCCC)CCCCCCCC)CCCCOC(=O)C1CCN(C)CC1 (stereo not drawn) [CL15F 10-4] | 2.00 |

Here is the next item to consider.
Query: Given CCCCC(CCCC)C(=O)OCCCCCCC(O)(CCCCCCOC(=O)C(CCCC)CCCC)CCCCOC(=O)C1CCN(C)CC1 [CL15F 6-4] , respond with its F7 enzyme activity (Ratio using MC3 as 1).
Reply: 2.28

----------
Assay: Average particle size (ζ-Average) and PDI by dynamic light scattering (Zetasizer Nano ZSP)
Assay type: physicochemical
Settings: FlucmRNA-loaded LNP, 50:10:38.5:1.5
MEASURE NAME: PDI

| MOLECULE | VALUE MEASURED |
| --- | --- |
| CCCCCCC(CCCC)C(=O)OCCCCCCC(O)(CCCCCCOC(=O)C(CCCC)CCCCCC)CCCCN(CCC)CCC (stereo not shown) | 0.020 |
| CCCCCCCC(CCC)C(=O)OCCCCCCC(O)(CCCCCCOC(=O)C(CCC)CCCCCCC)CCCCOC(=O)C1CCN(C)CC1 (stereo not shown) [CL15F 9-3] | 0.044 |

a = CCCCCCC(CCCCCC)C(=O)OCCCCCCC(O)(CCCCCCOC(=O)C(CCCCCC)CCCCCC)CCCCN(CCC)CCC
b = CCCCCCCCC(CCCC)C(=O)OCCCCCCC(O)(CCCCCCOC(=O)C(CCCC)CCCCCCCC)CCCCN(CCC)CCC (stereo not shown)
Query: Hey, which is lower on measured PDI, a or b ? Answer by quoting the chosen item's label.
Reply: a
